Test system: M14 melanoma
Procedure text: NCI-60 one-dose screen, 48 h (100 = growth as untreated, 0 = no growth, -100 = all killed)
Condition parameters: 10 µM
About 83,000 compounds went through this panel and 20% of them were active in at least one assay; those are over-represented in the sample as a whole.
Property: growth (%)
Numbers only, in %.

N#CCC1CCCC1: 105

Give growth for each listed item.
1. O=C(O)c1cc(C(F)(F)F)cc(C(F)(F)F)c1
2. N#Cc1ncc(-c2cc(F)ccc2F)c(NC2CCCCCC2)n1
3. CCCCC(CC#N)(CCC)CCC
4. COCCOC(=O)NC(=O)Nc1ccc(/C(=N/O)c2ccc(Cl)cc2)cc1
5. CCCCNC(=O)Oc1ccc(/C(=C(\C)c2ccc(OC)cc2)c2ccc(OCCN3CCCCC3)cc2)cc1

OUTPUT:
91.1
104
97.4
3.73
-54.8

====

Tested on: SK-MEL-28 melanoma
Procedure text: NCI-60 one-dose screen, 48 h (100 = growth as untreated, 0 = no growth, -100 = all killed)
Condition parameters: 10 µM
This is part of a sample that, as a whole, favours compounds with a hit. Of some 83,000 tested, about 20% had one in any assay.
Property: growth (%)
Numbers only, in %.

Examples with their reported growth follow.
O=C(O)c1ccccc1C(=O)c1cccc2c(F)cccc12: 111
O=C(NNC(=O)c1ccncc1)Nc1ccc([N+](=O)[O-])cc1: 127
Cc1nc(N)sc1Sc1nc2ccc(Cl)cc2c(=O)n1-c1ccc(Oc2ccccc2)cc1: 95.1

Lab note: each molecule below needs its growth filled in.
1. CCOC(=O)C(=O)Cc1cccnn1
2. O=C(COc1ccc(-c2nc3ccccc3[nH]2)cc1)N=Nc1c(O)[nH]c2ccccc12

OUTPUT:
1: 108; 2: 99.7

Per the record, `COc1cc(/C=C/C(=O)c2cc(-c3ccc(F)cc3)ccc2O)cc(OC)c1OC` has growth of 100

====

Test system: CAKI-1 renal
Procedure text: NCI-60 one-dose screen, 48 h
Condition parameters: 10 µM
This is part of a sample that, as a whole, favours compounds with a hit. Of some 83,000 tested, about 20% had one in any assay. Calls of active or inactive are those of the source. The calls were made as follows: active = growth percent below 10; inactive = the rest.
Would you mind answering with one of these outcomes? Y (active), N (inactive)

Some entries whose results are on file:
CCOC(=O)c1sc(Nc2ncccn2)nc1-c1ccccn1: N
O=C1/C(=C/c2ccc(O)cc2)CSc2ccc(Cl)cc21: N
CN(C)c1ccc2cc(-c3cc4c(oc3=O)-c3ccccc3OC4O)c(=O)oc2c1 (stereo not given): Y
CNC(=O)c1cc(Oc2ccc(NC(=O)Nc3ccc(Cl)c(OC4CCCCC4)c3)c(F)c2)ccn1: N
C#Cc1ccc(-n2c(/C=C/c3cc(OC)c(OC)c(OC)c3)nc3ncccc3c2=O)cc1: N

INPUT: So what was the verdict on `Cc1cc(/C=C2\SC(=Nc3ccccc3)N(C3CCCC3)C2=O)c(C)n1-c1ccc(Cl)cc1` in this test?
OUTPUT: Y

INPUT: Entry COc1cccc2c1C(=O)c1c(O)c3c(c(O)c1C2=O)C[C@@](O)(C(=O)COC(=O)c1ccccc1)C[C@@H]3OC1CC(N)C(O)C(C)O1 (stereo not given in full) : call = ?
OUTPUT: Y

INPUT: # fetch the recorded call for `COc1ccc(NC(=O)CCn2cnc3c(cc(-c4ccccc4)n3-c3ccccc3)c2=O)cc1` here
OUTPUT: N

INPUT: Could you please tell me the result logged for COc1cc(C2C(C#N)=C(c3c[nH]c4ccccc34)Nc3nc(N)[nH]c(=O)c32)cc(OC)c1OC (stereo not given) in this assay?
OUTPUT: N

INPUT: Given `CCN(CC)CCCOC(=O)Nc1ccccc1Cl` , state the outcome it received in this test.
OUTPUT: N

INPUT: Recorded test outcome, item `Cc1cc(C)c(/C=C2\C(=O)Nc3ccc(NC(=O)CCCCCCC(=O)NO)cc32)[nH]1`
OUTPUT: N

INPUT: For `COc1cc(/C=C/C(=O)c2cc(-c3ccc(F)cc3)ccc2O)cc(OC)c1OC` , which call appears in the assay record?
OUTPUT: N

INPUT: Per the assay record, what outcome was assigned to CCCOCC(O)CNCCN (stereo not given) ?
OUTPUT: N

INPUT: // return assay outcome for `COc1ccc(-c2n/c(=C\c3c(O)[nH]c4ccccc34)cc3c2=Nc2ccccc2-3)cc1`
OUTPUT: N

INPUT: Please let me know the test result on file for `CCc1ccc(-c2nnc(COc3ccc(-c4nc5ccccc5[nH]4)cc3OC)o2)cc1` .
OUTPUT: N

INPUT: Tell me the recorded outcome of this test for `CN(C)CCCN1c2ccccc2Sc2ccc(C(F)(F)F)cc21` .
OUTPUT: N

INPUT: Could you please tell me the result logged for `O=C(CCCC(=O)N/N=C/c1cc(Cl)ccc1O)N/N=C\c1cc(Cl)ccc1O` in this assay?
OUTPUT: Y

INPUT: Recorded test call requested for COC(=O)CCCCCCCCC(C)c1ccc(C(C)=O)cc1 (stereo not given)
OUTPUT: N

INPUT: Identify the outcome logged in this assay for the compound shown: COc1nc2c(c(=O)[nH]1)C(c1ccc(Oc3ccnc4cc(Cl)ccc34)c(OC)c1)C=C(c1cc(OC)c(OC)c(OC)c1)N2 (stereo not given)
OUTPUT: N

INPUT: Test call for this compound, please: `O=C(O)c1cc(C(F)(F)F)cc(C(F)(F)F)c1`
OUTPUT: N
